Target desc: MAPK14 (human)
Protocol description: In vitro Inhibition of VEGF Stimulated MAPK Activation
Recorded metric: log10 IC50 (log10 of the value in nM)
Base-10 log of IC50, unit nM.

Consider the worked cases shown below.
>  <Molecule>
COc1cc2c(Oc3ccc(NC(=O)Nc4ccc(F)cc4F)c(F)c3)ccnc2cc1OCCN1CCOCC1

>  <log10 IC50>
-0.30

$$$$
>  <Molecule>
COc1cc2ncnc(Oc3ccc(NC(=O)Nc4ccc(F)cc4F)cc3C)c2cc1OC

>  <log10 IC50>
0.94

$$$$
>  <Molecule>
COc1cc2nccc(Oc3ccc(NC(=O)Nc4ccc(F)cc4F)c(C)c3C)c2cc1OC

>  <log10 IC50>
-0.22

$$$$
>  <Molecule>
COc1cc2c(Oc3cc(C)c(NC(=O)Nc4ccc(F)cc4F)cc3C)ccnc2cc1OCCN1CCOCC1

>  <log10 IC50>
0.64

$$$$
>  <Molecule>
CCCNC(=O)Nc1ccc(Oc2ncnc3cc(OC)c(OC)cc23)cc1

>  <log10 IC50>
1.62

$$$$
>  <Molecule>
COCCOc1cc2nccc(Oc3ccc(NC(=O)Nc4ccc(F)cc4F)c(C)c3C)c2cc1OC

>  <log10 IC50>
0.71

$$$$

According to the records, this molecule `COCCOc1cc2nccc(Oc3ccc(NC(=O)Nc4ccccc4OC)c(Cl)c3)c2cc1OC` displays log10 IC50 of 0.45

Summary for this molecule, `COc1cc2ncnc(Oc3ccc(NC(=O)Nc4ccc(F)cc4F)c(C)c3)c2cc1OC` : log10 IC50 is 0.72
